K obs / 1 reference
# experimental system: Neutrophil elastase (Homo sapiens)
# test method notes: Ratio between k observed and KI of Human leukocyte elastase (HEL)
Respond numerically; units are M⁻¹ s⁻¹ and should not be typed.

Record excerpt, results attached:
O=C(Oc1ccccc1I)c1cc2cc(CCl)ccc2oc1=O    85
O=C(Oc1cccc(Cl)c1)c1cc2cc(CCl)ccc2oc1=O    630

K obs / 1 reported for this molecule O=C(Oc1ccccc1Cl)c1cc2cc(CCl)ccc2oc1=O : 23

----------
# experimental system: Chymotrypsinogen A (Bos taurus)
# test method notes: Ratio between k inactivation and KI of alpha-chymotrypsin
One threshold, 400 M⁻¹ s⁻¹, splits the recorded K inact/Ki values: lower ones are t, equal or higher ones are f.

O=C(Oc1cccc(Cl)c1)c1cc2cc(CCl)ccc2oc1=O    f
O=C(NCCc1ccccc1)c1cc2cc(CCl)ccc2oc1=O    t
CCCCCOC(=O)c1cc2cc(CCl)ccc2oc1=O    t

*Q* Is the reported K inact/Ki for O=C(Oc1ccccc1Cl)c1cc2cc(CCl)ccc2oc1=O strictly below 400 M⁻¹ s⁻¹?
*A* f

*Q* Please indicate whether the reported K inact/Ki of C=CCOC(=O)c1cc2cc(CCl)ccc2oc1=O is strictly below 400 M⁻¹ s⁻¹.
*A* f
